CD95 expression enhancing activity in Ramos cells, reduction against IgG2 overview
system-tested: human CD40 expressed on cells (Ramos, T24, Hs 766T, Capan-2) (human, UniProt P25942 21-277)
Sequence (P25942 21-277): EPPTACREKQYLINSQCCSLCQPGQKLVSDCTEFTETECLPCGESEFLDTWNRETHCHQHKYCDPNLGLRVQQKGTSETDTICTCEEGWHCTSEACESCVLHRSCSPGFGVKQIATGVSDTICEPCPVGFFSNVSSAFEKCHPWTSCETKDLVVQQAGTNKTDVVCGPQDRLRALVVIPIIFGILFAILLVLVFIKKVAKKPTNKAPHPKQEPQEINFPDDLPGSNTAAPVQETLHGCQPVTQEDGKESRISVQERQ
measurement-description: cell-based or functional assay
measure-name: CD95 expression enhancing activity in Ramos cells, reduction against IgG2

{"binder": "2105 antibody, constant region converted into IgG3 (antibody, V domains shown) VH: EVQLVESGGGLVQPGRSLRLSCAASGFTFDDYAMHWVRQAPGKGLEWVSGISWNSGSLVHADSVKGRFTISRDNAKNSLYLQMNSLRAEDTALYYCARDRLFRGVRYYGMDVWGQGTTVTVSS VL: EIVLTQSPATLSLSPGERATLSCRASQSVSSYLAWYQQKPGQAPRLLIYDASNRATGIPARFSGSGSGTDFTLTISSLEPEDFAVYYCQQRSHWLTFGGGTKVEIK", "observed-measurement": "≥ 10%"}
{"binder": "KM341-1-19 antibody, constant region converted into IgG4 (antibody, V domains shown) VH: QVQLQQSGPGLVKPSQTLSLTCAISGDSVSSNSATWNWIRQSPSRDLEWLGRTYYRSKWYRDYVGSVKSRIIINPDTSNNQFSLQLNSVTPEDTAIYYCTRAQWLGGDYPYYYSMDVWGQGTTVTVSS VL: EIVLTQSPATLSLSPGERATLSCRASQSVSSYLAWYQQKPGQAPRLLIYDASNRATGIPARFSGSGSGTDFTLTISSLEPEDFAVYYCQQRSNTFGPGTKVDIK", "observed-measurement": "≥ 10%"}
{"binder": "KM341-1-19 antibody, constant region converted into IgG3 (antibody, V domains shown) VH: QVQLQQSGPGLVKPSQTLSLTCAISGDSVSSNSATWNWIRQSPSRDLEWLGRTYYRSKWYRDYVGSVKSRIIINPDTSNNQFSLQLNSVTPEDTAIYYCTRAQWLGGDYPYYYSMDVWGQGTTVTVSS VL: EIVLTQSPATLSLSPGERATLSCRASQSVSSYLAWYQQKPGQAPRLLIYDASNRATGIPARFSGSGSGTDFTLTISSLEPEDFAVYYCQQRSNTFGPGTKVDIK", "observed-measurement": "≥ 10%"}
